Field: GI50. Provide a value for each of the compounds that follow.
tested on: NCI-H460 lung

Before answering, review these 2 worked examples.
- Compound: "ClC1=C(Cl)C(Cl)=C(Cl)C1=Cc1ccc(Cl)cc1"
  Subject Of Test: "NCI-H460 lung"
  Observed Property: "GI50"
  Endpoint Value: "0.726 µM"
- Compound: "CC(C)CNc1nc(N=[N+]=[N-])nc(NCC(C)C)n1"
  Subject Of Test: "NCI-H460 lung"
  Observed Property: "GI50"
  Endpoint Value: "> 10 µM"

# map each compound to its GI50
1. CCCCCCC1N=C(N)N=C(N)N1c1ccc(Cl)cc1 (stereo unspecified)
2. Cc1ccc(-c2cc(/C=N/O)on2)cc1

4.69 µM
63.6 µM

# map each compound to its GI50
1. Cc1cc2nc3c4ccccc4n(CCN(C)C)c3nc2cc1C
2. Cc1c(N2C(=O)/C(=C\c3ccc(N(C)C)cc3)N=C2c2ccccc2)c(=O)n(-c2ccccc2)n1C

["0.709 µM", "62.9 µM"]

###

test system: HL-60(TB) leukemia; assay: NCI tumour cell line growth inhibition, 48 h
Observed Property: TGI

Before answering, review these 4 worked examples.
- Molecule: "COC(=O)/C(=N\\O)C(C(=O)C=C(C)C)C(=O)C(=O)Nc1ccccc1C (stereo unspecified)"
  Subject Of Test: "HL-60(TB) leukemia"
  Endpoint Value: "> 100 µM"
- Molecule: "O=C(/N=C/c1c(O)c2ccccc2oc1=O)NC1CCCCC1"
  Subject Of Test: "HL-60(TB) leukemia"
  Endpoint Value: "> 100 µM"
- Molecule: "CCCOCN1COCN=C1NC#N"
  Subject Of Test: "HL-60(TB) leukemia"
  Endpoint Value: "> 100 µM"
- Molecule: "Cc1cccnc1CNC1CC(NCc2ncccc2C)CC(NCc2ncccc2C)C1 (stereo unspecified)"
  Subject Of Test: "HL-60(TB) leukemia"
  Endpoint Value: "5.98 µM"

# map each molecule to its TGI
1. C=C1CC(C/C=C(\C)CC2CC(=C)C(=O)O2)OC1=O (stereo unspecified)
2. COP(=O)(C(/C=C/c1ccccc1)OC(C)=O)[C@@H]1CCCC[C@H]1N(CC(C)(C)C)C(C)=O (stereo partly specified)
3. CCc1ccccc1-n1c(N)c(C#N)c(-c2ccc(OC)c(OC)c2)c(C#N)c1=O
4. N#CC(c1ccccc1)(c1ccccc1)[C@@H](c1ccccc1)[C@H](Cc1ccccc1)NS(=O)(=O)c1ccccc1
5. CNC(=O)OCCN1c2ccccc2Sc2ccccc21

1. > 100 µM
2. 41.3 µM
3. > 100 µM
4. > 100 µM
5. > 100 µM

# map each molecule to its TGI
1. ClCC1(CCl)COC1
2. COc1ccc(-c2cncn2-c2cc(OC)c(OC)c(OC)c2)cc1F

1: > 100 µM; 2: < 0.0288 µM

###

test system: 786-0 renal; assay: NCI tumour cell line growth inhibition, 48 h
Field: TGI. Provide a value for each of the compounds that follow.

- Compound: "C=CCC1=CC2(OC)C(=O)C(OC)(OC)C1C1C(OC)(OC)C(=O)C(OC)=CC12CC=C (configuration not stated)"
  TGI: "> 100 µM"
- Compound: "CO[C@@]12CC(=O)/C(=C(O)\\C=C\\c3ccccc3)C(=O)[C@]1(OC)Cc1ccccc1O2"
  TGI: "70.2 µM"
- Compound: "O=c1[nH]c2c(O)cccc2c2cc3c(c(O)c12)OCO3"
  TGI: "> 100 µM"

# map each compound to its TGI
1. C=C1C(=O)OC2CC3(C)OC3C3OC3C3=CC(OC3=O)C12 (configuration not stated)
2. CC(C)NC(=O)O/N=C1\CCC2[C@@H]3CC=C4C[C@@H](OC(=O)NC(C)C)CC[C@]4(C)C3CC[C@]12C (some centres not stated)
3. CN(C)/C=N/S(=O)(=O)c1nn2c(C=O)c(-c3ccc([N+](=O)[O-])cc3)nc2s1
4. CC(C)CNc1nc(N=[N+]=[N-])nc(NCC(C)C)n1
5. CC1(C)S[C@@H]2[C@H](NC(=O)/C=C/c3ccccc3)C(=O)N2[C@H]1C(=O)O
6. COC(=O)/C(=C\C(=O)c1ccc(Br)cc1)NN=C(c1ccccc1)c1ccccc1

["33.8 µM", "4.01 µM", "9.03 µM", "> 10 µM", "> 100 µM", "> 10 µM"]

# map each compound to its TGI
1. C=C(C)[C@@H]1CC[C@]2(C)[C@H](C=CC3=C4C[C@@](C)(CO)CC[C@]4(C)CC[C@]32C)[C@@]1(C)CCCN
2. NC(=O)CCC(NC(=O)C(F)(F)F)C(=O)O (configuration not stated)
3. Cc1cc2c(cc1C)[n+]([O-])c(-c1c(Cl)cccc1Cl)c(N)[n+]2[O-]

3.44 µM
> 100 µM
> 100 µM

# map each compound to its TGI
1. COc1ccc(NC(=O)O[C@H]2[C@H](O[C@H]3[C@@H](O)COC(O[C@H]4C[C@H]5[C@@H]6CC=C7C[C@@H](O)CC[C@]7(C)[C@H]6CC[C@]5(C)[C@H]4[C@H](C)C(=O)CCC(C)C)[C@@H]3OC(C)=O)OC[C@@H](O)[C@@H]2O)cc1 (some centres not stated)
2. COC1=CC(=O)c2ccccc2C1(C)C1=NC(C)(C)CO1 (configuration not stated)
3. N#CC(c1ccccc1)N(CCc1ccccc1)C(=O)Oc1ccccc1 (configuration not stated)
4. CCNCCNc1cc(-c2cccc(C(F)(F)F)c2)c(C#N)c2nc3ccccc3n12

1: 11.3 µM; 2: > 100 µM; 3: > 100 µM; 4: 2.33 µM

###

Field: TGI. Provide a value for each of the compounds that follow.
test system: TK-10 renal; test: NCI tumour cell line growth inhibition, 48 h

Before answering, review these 5 worked examples.
- Compound: "Cc1cccc(N=C2NC(=O)C(CC(=O)Nc3ccc(Cl)cc3C)S2)c1 (stereo unspecified)"
  TGI: "> 100 µM"
- Compound: "CN(C)/C=N/S(=O)(=O)c1nn2c(C=O)c(-c3ccc([N+](=O)[O-])cc3)nc2s1"
  TGI: "21.6 µM"
- Compound: "C1=c2ccccc2=C2C(=C(c3ccccc3)C(c3ccccc3)=NN2c2ccccc2)S1"
  TGI: "> 100 µM"
- Compound: "O=C(NNC(=O)c1ccccc1Cl)c1ccccc1O"
  TGI: "> 100 µM"
- Compound: "CCOC(=O)C(Cc1ccc(OC)cc1)C(=O)OCC"
  TGI: "26.2 µM"

# map each compound to its TGI
1. O=C(O)Cc1ccc2c(c1O)C(=O)c1c(ccc(CC(=O)O)c1O)C2=O
2. COC(=O)/C(=C\C(=O)c1ccc(Br)cc1)NN=C(c1ccccc1)c1ccccc1
3. CC[C@@]1(OC(=O)CN)C(=O)OCc2c1cc1n(c2=O)Cc2cc3c(N)c4c(cc3nc2-1)OCO4
4. O=C(N/C(=C/c1ccc(Cl)cc1)c1nc2ccccc2c(=O)n1Nc1ccc([N+](=O)[O-])cc1[N+](=O)[O-])c1ccccc1
5. O=[N+]([O-])c1ccc(N2N=C(c3ccc4ccccc4c3O)CC2c2ccc(Cl)cc2Cl)c([N+](=O)[O-])c1 (stereo unspecified)
6. CCOC(=O)c1cn2c([nH]c3ccccc32)c(C#N)c1=O

> 100 µM
> 10 µM
> 100 µM
> 100 µM
> 100 µM
> 100 µM

###

test system: XF 498 CNS; assay: NCI tumour cell line growth inhibition, 48 h
Observed Property: TGI

Before answering, review these 3 worked examples.
- Compound: "CCCOCN1COCN=C1NC#N"
  TGI: "> 100 µM"
- Compound: "CC12C(=O)N(CCN)C(=O)C1C1c3ccccc3C2c2ccccc21 (stereo unspecified)"
  TGI: "> 100 µM"
- Compound: "NNC(=S)N/N=C/C(Cl)=C(\\Cl)C(=O)O"
  TGI: "> 100 µM"

# map each compound to its TGI
1. O=C(/N=C/c1c(O)c2ccccc2oc1=O)NC1CCCCC1
2. O=C1CCC(=O)C(C(=O)CCC(=O)Nc2cccc(Cl)c2)C1 (stereo unspecified)
3. FC(F)(F)C1=NC(=NNc2nnc(-c3ccccc3)c(-c3ccccc3)n2)N=C(C(F)(F)F)C1

1. 93 µM
2. > 100 µM
3. > 88.5 µM

###

system: CCRF-CEM leukemia; assay: NCI tumour cell line growth inhibition, 48 h
Observed Property: TGI

Before answering, review these 5 worked examples.
- Compound: "CCOC(=O)C(Cc1cn(S(=O)(=O)c2ccc(C)cc2)cn1)P(=O)(OCC)OCC (stereo unspecified)"
  TGI: "> 100 µM"
- Compound: "C[C@]12CCCC(=O)C1C[C@H](C(=O)O)CC2 (stereo partly specified)"
  TGI: "> 100 µM"
- Compound: "O=C1C2Nc3ccccc3SC2C(=O)N1c1cccc([N+](=O)[O-])c1 (stereo unspecified)"
  TGI: "> 100 µM"
- Compound: "O=c1cc(-c2ccccc2Cl)[nH]c2cc3c(cc12)OCO3"
  TGI: "0.381 µM"
- Compound: "Cc1cc(Br)cc(C)c1NC(=O)C(=O)C1C(=O)C(CC2C(=O)c3ccccc3C2=O)C(=O)CC1(C)C (stereo unspecified)"
  TGI: "95.7 µM"

# map each compound to its TGI
1. COc1cc(C2C(Cl)C(=O)N2NC(=O)Cc2ccccc2)ccc1O (stereo unspecified)
2. COc1ccc(Nc2nc3ccccc3nc2C(=O)O)cc1

1: > 100 µM; 2: > 100 µM

# map each compound to its TGI
1. N#CSCC(=O)c1ccc(Cl)cc1
2. COC(=O)C(=O)C1CCCCC(C2=NC3NN=C(N)N3C2=O)C1=O (stereo unspecified)
3. C/C(=N\Nc1cccc(Cl)n1)c1ccccn1

["20.6 µM", "> 100 µM", "> 25.2 µM"]

Can you look up the measured TGI of `O=c1[nH]c2c(O)cccc2c2cc3c(c(O)c12)OCO3` for me?
64.3 µM

The measured values listed here are drawn from PubChem BioAssay (NCI).
